For each entry below, report its TGI value.
# Tested on: OVCAR-8 ovarian
# Assay method text: NCI tumour cell line growth inhibition, 48 h

Solved cases (8 shown):
Clc1ccc2c(c1)N(CCCN1CCCC13CCCCC3)c1ccccc1S2    42.6 µM
CCOC(=O)c1c(-c2ccc(OC)cc2)ccn1C    > 10 µM
O=CCCCCCOCc1ccccc1    > 100 µM
CCN1CC2(C)CCC(OC)C34C5CC6CCC(O)(C5C(=O)O6)C(C(O)C23)C14 (stereo not drawn)    > 100 µM
Cc1ccc(C2=CC(=O)c3ccccc3C2=O)n1-c1ccccc1    > 100 µM
C=C1C(=O)O[C@@H]2/C=C(/C)[C@@H](OC(C)=O)C/C=C(\C)C(O)[C@@H](OC(=O)/C(C)=C\C)C12 (stereo partly drawn)    75.3 µM
N#Cc1ccccc1NC(=O)C(=O)C(C(=O)c1ccccc1F)C1OC(=O)c2ccccc21 (stereo not drawn)    > 100 µM
N#Cc1c(-c2ccc([N+](=O)[O-])cc2)c(C#N)c(=O)n(NS(=O)(=O)c2ccccc2)c1S    > 100 µM

I need TGI for every entry listed below, if you could help.
1. O=C(Nc1ccc(Cl)cc1C(F)(F)F)C(=O)Nn1c(=S)[nH]c2ccccc2c1=O
2. COc1cc(O)ccc1C(=S)SC
3. C=C(C)C1CC(=O)C(C)=C(O)C1 (stereo not drawn)
4. Cc1cn(CCCCCCOC(=O)NC(CCCNC(N)=O)C(=O)O)c(=O)[nH]c1=O (stereo not drawn)
5. COP(=O)(OC)OCN(C)CC/C=C(\C)CC/C=C(\C)CCC=C(C)C
6. NC(=O)CCC(N=c1c2ccccc2n(O)c2ccccc12)C(=O)O (stereo not drawn)
7. Cn1c(I)c(C#C[Si](C)(C)C)c(=O)n(C(=O)c2ccccc2)c1=O
8. CCOC(=O)Nc1ccc2nc(-c3cscn3)[nH]c2c1

1: > 100 µM; 2: > 100 µM; 3: > 100 µM; 4: > 100 µM; 5: 29.5 µM; 6: > 100 µM; 7: 26.1 µM; 8: > 100 µM

I need TGI for every entry listed below, if you could help.
1. NCCO/C=C/C(N)C(=O)O (stereo not drawn)
2. COc1ccc(-c2ccc(C3CC(c4ccccc4)=NN3)o2)c([N+](=O)[O-])c1 (stereo not drawn)
3. COc1ccc2[nH]c(C(=O)N3CCN(C(=O)OCc4ccc5c(Cl)cc(Cl)c(O)c5n4)CC3)cc2c1
4. CCOc1c(Br)cc(Br)cc1C=C(C#N)C#N

["> 100 µM", "> 100 µM", "2.42 µM", "> 10 µM"]

I need TGI for every entry listed below, if you could help.
1. CC(O)c1nc(C#N)c(N)o1 (stereo not drawn)
2. COC(=O)[C@]1(c2cc3ccccc3n2S(=O)(=O)c2ccccc2)CC2CN(C(=O)OCc3ccccc3)C1C1OC(C)(C)OC21 (stereo partly drawn)
3. ClC1=NN=C(c2c[nH]c3ccccc23)CC1NCc1ccccc1 (stereo not drawn)

1: > 100 µM; 2: > 100 µM; 3: > 100 µM

====

# Tested on: COLO 205 colon
# Assay method text: NCI tumour cell line growth inhibition, 48 h
For each entry below, report its GI50 value.

Solved cases (2 shown):
C[C@@H]1C[C@@H]([C@H](O)CC2CC(=O)NC(=O)C2)C(=O)[C@@H](C)C1    224 nM
COc1cc(C2CC(c3ccc(Nc4nc(NCCO)nc(NCCO)n4)cc3)=NN2c2cc(Cl)cc(Cl)c2)cc(OC)c1OC (configuration not stated)    2700 nM

I need GI50 for every entry listed below, if you could help.
1. Cn1c(COC(=O)NCCn2ccnc2)nc2c(N3CCOCC3)nc(-c3ccccc3)nc21
2. O=C(Nc1sc2c(c1C(=O)O)CCCC2)c1ccco1
3. COc1cc2c(cc1C)NC(=O)/C2=C/c1ccnc2ccccc12
4. COc1cc2c(/C=C3\C(=O)Nc4ccccc43)c[nH]c2cc1C
5. O=C1c2cccc3cccc(c23)C(=O)N1CCCCCN1CCN(CCN=c2cc3n(-c4ccc(Cl)cc4)c4ccccc4nc-3cc2Nc2ccc(Cl)cc2)CC1
6. COc1ccc(-c2ccc(OC)c(OC)c2OC)cc1
7. CCCC(=O)O[C@]1(C)CC[C@@H]2[C@H]3[C@@H]1[C@@H]1C[C@@](C)(O)[C@H](OC)CC[C@](C)(OC(=O)[C@@H]2C)[C@H]3O1
8. CC(=O)[CH-]C(C)=O.CC(=O)[CH-]C(C)=O.[O-]c1ccccc1.[O-]c1ccccc1.[Ti+4]

1. 1150 nM
2. 44200 nM
3. 38900 nM
4. 118 nM
5. 2380 nM
6. 1740 nM
7. 33700 nM
8. > 100000 nM

I need GI50 for every entry listed below, if you could help.
1. CCCCCCCC(=O)OCC/C=C/C1OC1C1OC(=O)/C=C\C=C\C(=O)N(C(C)=O)C(=O)/C=C(/C)CCC2OC2C1OC(=O)NC(C)=O (configuration not stated)
2. CCOC(=O)NC(=S)N(CC(=O)c1cc(OC)c(OC)c(OC)c1)c1ccc(Cl)cc1

["3270 nM", "> 100000 nM"]

====

# Test system: CAKI-1 renal
# Assay method text: NCI tumour cell line growth inhibition, 48 h
Reported metric: TGI (µM)
One number for each entry, in µM.

Solved cases (5 shown):
COc1cc2c(/C=C3/C(=O)Nc4ccccc43)c(Cl)n(Cc3ccc(Cl)cc3)c2cc1C    0.834
Nc1c(C(=O)c2ccc(Cl)c(Cl)c2)[nH]c(NCc2ccccc2)c1C(=S)Nc1ccccc1    32.2
C/C(=N\Nc1nc2ccccc2s1)c1ccncn1    12.2
C=C1C(=O)O[C@@H]2/C=C(/C)[C@@H](OC(C)=O)C/C=C(\C)C(O)[C@@H](OC(=O)/C(C)=C\C)C12 (some centres undefined)    54.4
CCOc1ccc2nc(NC(=O)C(=O)C(C(=O)c3ccccc3F)C3OC(=O)c4ccccc43)sc2c1 (centres undefined)    75.3

I need TGI for every entry listed below, if you could help.
1. CC1OC(OC2C(O[C@H]3CC[C@@]4(C)C(=CC[C@H]5[C@@H]6C[C@@H]7O[C@]8(CC[C@@H](C)CO8)[C@@H](C)[C@@H]7[C@@]6(C)CC[C@@H]54)C3)OC(CO)C(O)C2OC2OC(CO)C(O)C(O)C2O)C(O)C(O)C1O (some centres undefined)
2. CCC1(O)CC(CCN(Cc2ccccc2)C(=O)OCc2ccccc2)C(OCc2ccccc2)C1O (centres undefined)
3. OCc1ccc(N(Cc2ccc(F)cc2)Cc2ccc(F)cc2)cc1Cl
4. COc1ccc(-n2c(=S)sc3c(Cl)nc(C)nc32)c(OC)c1

1. 5.07
2. 65.7
3. 5.87
4. 19.3

====

# Test system: NCI/ADR-RES ovarian
# Assay method text: NCI tumour cell line growth inhibition, 48 h
For each entry below, report its TGI value.

O=C1/C(=C/c2ccccc2)Oc2cc(O)ccc21    > 100 µM
Clc1ccc2c(c1)N(CCCN1CCCC13CCCCC3)c1ccccc1S2    44.5 µM
OCc1ccc(N(Cc2ccc(F)cc2)Cc2ccc(F)cc2)cc1Cl    30.4 µM
COC1(CC[C@@H](C)COC2OC(CO)C(O)C(O)C2O)OC2C[C@H]3[C@@H]4CC[C@H]5C[C@@H](OC6OC(CO)C(OC7OC(CO)C(O)C(O)C7O)C(O)C6OC6OC(C)C(O)C(O)C6O)[C@H](O)C[C@]5(C)[C@H]4CC[C@]3(C)C2[C@@H]1C (some centres undefined)    > 20.6 µM

I need TGI for every entry listed below, if you could help.
1. Oc1ccc(C(O)C2CCCCN2)cc1O (centres undefined)
2. N#Cc1nc(CCc2nc(C#N)c(N)o2)oc1N
3. CCCCNC(c1ccc(Cl)cc1)C(O)c1ccc(Cl)cc1 (centres undefined)
4. C=C1c2nc3ccccc3n2C=C(c2ccc(C)cc2)N1c1ccc(OC)cc1
5. C=C1CCC[C@@H](C)C(O)[C@@H]2OC(=O)C(=C)[C@@H]2C[C@@H](OC(C)=O)[C@@]2(C)CC[C@@H]1O2 (some centres undefined)

> 100 µM
> 10 µM
5.35 µM
> 94.8 µM
19.3 µM

====

For each entry below, report its TGI value.
# Tested on: DU-145 prostate
# Assay method text: NCI tumour cell line growth inhibition, 48 h
One number for each entry, in µM.

COc1cc(/C=N/NC(=O)c2cnn3c2NC(c2ccccc2)C3)ccc1OC1CCCC1 (stereo not given)    7.03

Let us examine a further case.
I am curious: what TGI value has been reported for COc1ccc(N2C(=O)C3c4[nH]c5c(C)cccc5c4C4CCC(C(C)C)CC4C3C2=O)cc1 (stereo not given) ?
31.2

====

# Tested on: SN12C renal
# Assay method text: NCI tumour cell line growth inhibition, 48 h; in the data active = GI50 below about 0.43 µM; inactive = the rest
Hello, when you answer, please use one of the following outcomes: active, inactive

Record request — test call for NC(N)=N/N=C\c1ccc(OCc2ccccc2)cc1
inactive

meta.source: PubChem BioAssay (NCI)
